Origin of measurements: patent US20220047603A1

Let's go through some recorded pIC50 values for human ROCK-II (Homo sapiens, UniProt O75116) together.
pIC50: −log10 of the molar value.
Assay readout: pIC50

| Query smiles | Test value |
| --- | --- |
| Fc1cc(NC2=NCC3(CCC3)CO2)cc(F)c1Oc1ccnc2[nH]cc(C3(C(F)(F)F)CCC3)c12 | 5.25 |

[A] CC1(C)CN=C(Nc2cc(F)c(Oc3ccnc4[nH]cc(C5(C(F)(F)F)CCC5)c34)c(F)c2)OC1
[B] Fc1cc(NC2=NCC3(CCOCC3)CO2)cc(F)c1Oc1ccnc2[nH]cc(C3(C(F)(F)F)CCC3)c12
Q: From the recorded data, which exceeds the other in pIC50: A or B ? Write the label of whichever entry you select.
Result: B
(B: 5.72, A: 5.39)
